- Test system: HCT-15 colon
- TEST_NAME: NCI tumour cell line growth inhibition, 48 h
Collected TGI values appear next to each entry.

Please review the following examples before continuing.
{"MOLECULE": "CCN(CC)CCNC(=O)c1cn2ncnc(Oc3ccc(NC(=O)Nc4ccc(Cl)c(C(F)(F)F)c4)c(F)c3)c2c1C", "TGI": "2.89 µM"}
{"MOLECULE": "C=CC[C@]12C[C@@H](C(=O)OC)N(C(=O)OC)[C@H]1N(S(=O)(=O)c1ccccc1)c1ccccc12", "TGI": "> 100 µM"}
{"MOLECULE": "COC(=O)c1c2c(cc3c1CC1(C3)Cc3cc4c(c(C(=O)OC)c3C1)CCCC4)CCCC2", "TGI": "> 100 µM"}
{"MOLECULE": "CN(C)CCCN1C(=S)N(CCCN(C)C)c2c3cc(O)ccc3nc3c([N+](=O)[O-])ccc1c23", "TGI": "12.6 µM"}

Given the molecule Cc1csc(-c2cn(C)c3c2C(=O)C(N)=CC3=O)n1 , what is its reported TGI? > 100 µM

Given the molecule COc1ccc(C#CC(=O)O)c(OC)c1 , what is its reported TGI? > 100 µM

Given the molecule Cc1nn(C(=O)Cc2ccccc2)c2c1C(c1ccc(O)cc1)SC(N)=N2 (stereo not given) , what is its reported TGI? > 100 µM

Given the molecule CCOC(=O)NC(=S)NN(C)C1=NCC(C)(C)S1 , what is its reported TGI? > 100 µM

Given the molecule COc1ccccc1-c1cc(=O)c2ccc(C)nc2[nH]1 , what is its reported TGI? > 100 µM

Given the molecule CCCn1c(CN(Cc2nc3ccccc3n2CCC)Cc2nc3ccccc3n2CCC)nc2ccccc21 , what is its reported TGI? > 43.4 µM

Given the molecule CC(=O)N(C(C)=O)C1=C2c3ccccc3N(S(=O)(=O)c3ccccc3)C2n2c(=O)n(-c3ccccc3)c(=O)n2C1 (stereo not given) , what is its reported TGI? > 100 µM

Given the molecule Cc1ncc(C(=O)Nc2ccc(CN3CCN(C)CC3)c(C(F)(F)F)c2)cc1C#Cc1cnc(NC2CC2)c2ncccc12 , what is its reported TGI? 1.1 µM

Given the molecule O=C(NC(Cc1ccc(I)cc1)C(=O)O)c1ccc(I)cc1 (stereo not given) , what is its reported TGI? > 100 µM

Given the molecule CS(=O)(=O)OCCn1c(=O)n(CCOS(C)(=O)=O)c(=O)n(CCOS(C)(=O)=O)c1=O , what is its reported TGI? > 100 µM

Given the molecule O=c1ncccn1C1C=C(CO)C(O)C1O (stereo not given) , what is its reported TGI? > 50 µM

---

- Tested on: MCF7 breast
- TEST_NAME: NCI tumour cell line growth inhibition, 48 h
Collected TGI values appear next to each entry.

Please review the following examples before continuing.
{"COMPOUND": "c1ccc2c(c1)NC(C1OC3CCCN3C1C1Nc3ccccc3S1)S2 (stereo unspecified)", "REPORTED_VALUE": "> 100 µM"}
{"COMPOUND": "COc1ccc(/C=C2/CCc3cc4ccc(OC)cc4[o+]c32)c(O)c1", "REPORTED_VALUE": "22 µM"}
{"COMPOUND": "Clc1ccc(-c2nn3c(-c4ccncc4)nnc3s2)cc1", "REPORTED_VALUE": "> 100 µM"}
{"COMPOUND": "O=S1(=O)NCCCN1CCNc1nccc(-c2c(-c3cccc(O)c3)nc3sccn23)n1", "REPORTED_VALUE": "> 100 µM"}
{"COMPOUND": "COc1ccccc1-c1cc(=O)c2ccc(C)nc2[nH]1", "REPORTED_VALUE": "> 100 µM"}

// switching to the query compound
Please provide the recorded TGI for COc1ccc(C#CC(=O)O)c(OC)c1 , tested on MCF7 breast. > 100 µM

---

- Tested on: HCT-116 colon
- TEST_NAME: NCI tumour cell line growth inhibition, 48 h; in the data active = GI50 below about 0.43 µM; inactive = the rest
Respond using exactly one of the listed classes: Y for active, N for inactive

Recorded call for Cn1c(/C(C#N)=C/c2ccc3ccccc3c2)cc2ccccc21 ? Y

Recorded call for Cn1cc(-c2csc(-c3cn(C)c4ccccc34)n2)c2cnccc21 ? N

Recorded call for NC(=O)c1cccc(Nc2nccc(Nc3cccc(F)c3)n2)c1 ? N

Recorded call for c1ccc2nc3c(cc4ccccn43)nc2c1 ? N

Recorded call for CC(=O)[O-].CC(=O)[O-].CC(=O)[O-].CC(=O)[O-].[Mo+2].[Mo+2] ? N

Recorded call for NC(=O)C1(N2CCCCC2)CCN(CCCC(=O)c2ccc(F)cc2)CC1 ? N

Recorded call for CCCCCCCCCCCC[n+]1ccccc1 (tested in a mixture with another compound) ? N

---

- Tested on: A549 NSCLC
- TEST_NAME: NCI tumour cell line growth inhibition, 48 h
Collected TGI values appear next to each entry.

Given the compound COc1ccccc1-c1cc(=O)c2ccc(C)nc2[nH]1 , what is its reported TGI? > 100 µM

---

- Test system: HCC-2998 colon
- TEST_NAME: NCI tumour cell line growth inhibition, 48 h
Collected TGI values appear next to each entry.

{"MOLECULE": "CC(=O)NNc1nc(C)c(C(=O)NNC(=O)C(=O)Nc2nc3ccc([N+](=O)[O-])cc3s2)s1", "TGI": "> 100 µM"}
{"MOLECULE": "COCOc1ccc(Cn2c(=O)n(C)c(=O)c3c2ncn3C)cc1[N+](=O)[O-]", "TGI": "> 100 µM"}
{"MOLECULE": "Cc1cc2c(Br)cc(Br)c(O)c2nc1C(=O)c1ccccc1", "TGI": "> 68.2 µM"}

Given the molecule O=[N+]([O-])/C(C(Cl)=C(Cl)Cl)=C(\Nc1cccc2cccnc12)SCc1ccccc1 , what is its reported TGI? 36.7 µM

Given the molecule C=CCNC(=S)/N=C/c1c(O)c2ccccc2oc1=O , what is its reported TGI? > 100 µM

Given the molecule C/C(CC1C2CCCC1C2)=N\NC(N)=O (stereo not drawn) , what is its reported TGI? > 100 µM

Given the molecule CC(=O)[O-].CC(=O)[O-].CC(=O)[O-].CC(=O)[O-].[Mo+2].[Mo+2] , what is its reported TGI? > 100 µM

Given the molecule CC12CC(=O)C3C(C(=O)C1)C32C (stereo not drawn) , what is its reported TGI? > 100 µM

---

Collected TGI values appear next to each entry.
- Tested on: HT29 colon
- TEST_NAME: NCI tumour cell line growth inhibition, 48 h

{"COMPOUND": "C=CCC1[C@@H](C(C)(C)C(C(C)=O)C(=O)C(=O)OC)OC(C(C)(C)C)N1C(=O)OC (some centres undefined)", "SYSTEM_UNDER_TEST": "HT29 colon", "TGI": "> 100 µM"}

Given the compound COc1cccc(/C=C2\CCC(C)(CN(C)C)C2=O)c1 (centres undefined) , what is its reported TGI? > 100 µM

Given the compound CC(C)(C)NC(=O)/C(=C\Sc1ccccc1)c1ccc2c(c1)OCO2 , what is its reported TGI? 35.9 µM

Given the compound O=C(CCCN1CCC2(CC1)CC(=O)N(N1CCOCC1)C2=O)c1ccccc1 , what is its reported TGI? > 100 µM

Given the compound Cc1cc(N(CCC#N)CCC#N)ccc1/C=C1N=C(/C=C/c2ccccc2)OC(=O)N\1 , what is its reported TGI? > 100 µM

Given the compound O=C(c1ccc2ccccc2c1)c1c(C(F)(F)F)n([O-])c2ccc(Cl)cc2[n+]1=O , what is its reported TGI? 2.93 µM

---

- Tested on: NCI-H460 lung
- TEST_NAME: NCI tumour cell line growth inhibition, 48 h
Collected TGI values appear next to each entry.

Please review the following examples before continuing.
{"MOLECULE": "CC1=C2C(=O)c3ccccc3C2=C(C)S(=O)(=O)O1", "TGI": "> 10 µM"}
{"MOLECULE": "Cn1c2ccccc2c2c(=O)c3ccccc3[nH]c21", "TGI": "> 100 µM"}
{"MOLECULE": "CCCCCCCCCCCC[n+]1ccccc1 (tested in a mixture with another compound)", "TGI": "3.9 µM"}
{"MOLECULE": "C=CCOC(=O)CC[N+]1=CCC(c2ccccc2)(c2ccccc2)O1", "TGI": "> 100 µM"}

Please provide the recorded TGI for O=C/C(=C(/Cl)c1ccc(O)cc1)c1ccccc1 , tested on NCI-H460 lung. > 100 µM

Please provide the recorded TGI for Cc1csc(-c2cn(C)c3c2C(=O)C(N)=CC3=O)n1 , tested on NCI-H460 lung. 15.9 µM

---

- Tested on: BT-549 breast
- TEST_NAME: NCI tumour cell line growth inhibition, 48 h
Collected GI50 values appear next to each entry.

Please review the following examples before continuing.
{"COMPOUND": "CCC(=C(c1ccc(OCCCN(C)C)cc1)c1ccc(OCCCN(C)C)cc1)c1ccc(Cl)cc1", "GI50": "2.54 µM"}
{"COMPOUND": "CCOC1Oc2ccccc2-c2oc(=O)c(Sc3ccc(C)cc3)cc21 (centres undefined)", "GI50": "29.5 µM"}
{"COMPOUND": "c1ccc2nc3c(cc4ccccn43)nc2c1", "GI50": "> 100 µM"}

Given the compound O=S1(=O)NCCCN1CCNc1nccc(-c2c(-c3cccc(O)c3)nc3sccn23)n1 , what is its reported GI50? 24.3 µM
